Measured values drawn from patent US20240391954A1 for this set.

# Assay target: human MC4R (Homo sapiens, UniProt P32245)
# Construct: host or cells: HEK-293 cells stably expressing the GScAMP22F split-luciferase cAMP sensor and hMC4R, G418 selection
# Sequence (P32245 whole entry): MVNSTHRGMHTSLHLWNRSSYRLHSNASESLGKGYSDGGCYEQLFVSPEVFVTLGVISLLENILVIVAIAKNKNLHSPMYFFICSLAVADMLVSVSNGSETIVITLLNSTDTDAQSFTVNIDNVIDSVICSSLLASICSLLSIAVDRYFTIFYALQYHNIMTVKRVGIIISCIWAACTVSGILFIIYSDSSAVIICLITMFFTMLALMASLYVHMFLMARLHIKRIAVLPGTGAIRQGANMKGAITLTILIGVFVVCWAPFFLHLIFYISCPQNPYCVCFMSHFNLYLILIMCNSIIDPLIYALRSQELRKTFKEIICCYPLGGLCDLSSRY
# Method summary: split-luciferase cAMP sensor assay, agonist mode (measurement window 1), hMC4R
# Assay type: cell-based
# Recorded conditions: % maximal activation, agonist mode; read-out: MC4R cAMP % max activation
Positions of bridges follow the written chain, without caps; N, C: chain ends. Non-standard residues stand in square brackets, D forms with d. Residues, ends and D or L forms follow the SMILES beside them. NMeW = CN[C@@H](Cc1c[nH]c2ccccc12)C(=O)O; 2Nal = N[C@@H](Cc1ccc2ccccc2c1)C(=O)O; NMeH = CN[C@@H](Cc1c[nH]cn1)C(=O)O; Cit = NC(=O)NCCC[C@H](N)C(=O)O; Nle = CCCC[C@H](N)C(=O)O; Aib = CC(C)(N)C(=O)O
Below is a list of entries, each paired with its recorded Emax value.

Compound | Emax, %
CCCC[C@H](NC(C)=O)C(=O)N[C@H]1CSSC[C@@H](C(=O)N[C@@H](CCCNC(=N)N)C(=O)N[C@@H](Cc2ccccc2)C(=O)NCC(N)=O)NC(=O)[C@@H](Cc2c[nH]c3ccccc23)NC(=O)[C@H](CCCNC(=N)N)NC(=O)[C@H](Cc2ccc3ccccc3c2)NC(=O)[C@H](Cc2c[nH]cn2)NC1=O [CTX-2128] (Ac-[Nle]CH[2Nal]R[dW]CRFG-NH2; disulfide 2-7 (inferred)) | 87
CC(=O)N[C@@H](CCCNC(=N)N)C(=O)N[C@H]1CSSC[C@@H](C(N)=O)NC(=O)[C@@H](Cc2c[nH]c3ccccc23)NC(=O)[C@H](CCCNC(N)=O)NC(=O)[C@@H](Cc2ccccc2)NC(=O)[C@H](CCCNC(=N)N)NC(=O)[C@@H](C)NC1=O [CTX-1281] (Ac-RC[dA]R[dF][Cit][dW]C-NH2; disulfide 2-8 (inferred)) | 92
CC(=O)N[C@H]1CSSC[C@@H](C(N)=O)NC(=O)[C@H](Cc2c[nH]c3ccccc23)NC(=O)[C@H](CCCNC(=N)N)NC(=O)[C@@H](Cc2ccccc2)NC(=O)[C@H](Cc2c[nH]cn2)NC(=O)CNC1=O [CTX-1206, cyclo(Cys-Gly-His-D-Phe-Arg-Trp-Cys)] (Ac-CGH[dF]RWC-NH2; disulfide 1-7 (inferred)) | 101
CC(=O)N[C@H]1CSSC[C@@H](C(N)=O)NC(=O)[C@H](Cc2ccccc2)NC(=O)[C@H](CCCNC(=N)N)NC(=O)[C@@H](Cc2ccccc2)NC(=O)[C@H](CCCNC(N)=O)NC(=O)CNC1=O [CTX-1639, cyclo(Cys-Gly-Cit-D-Phe-Arg-Phe-Cys)] (Ac-CG[Cit][dF]RFC-NH2; disulfide 1-7 (inferred)) | 88
CC(=O)N[C@@H](CCCNC(=N)N)C(=O)N[C@H]1CSSC[C@@H](C(N)=O)NC(=O)[C@H](Cc2c[nH]c3ccccc23)NC(=O)[C@H](CCCNC(=N)N)NC(=O)[C@@H](Cc2ccccc2)NC(=O)[C@H](CCCNC(N)=O)NC(=O)[C@@H](C)NC1=O | 94
CC(=O)N[C@H]1CSSC[C@@H](C(N)=O)NC(=O)[C@H](Cc2c[nH]c3ccccc23)NC(=O)[C@H](CCCNC(=N)N)NC(=O)[C@@H](Cc2ccccc2)NC(=O)[C@H](Cc2c[nH]cn2)NC(=O)[C@@H](C)NC1=O | 96
N=C(N)NCCC[C@@H]1NC(=O)[C@@H](Cc2ccccc2)NC(=O)[C@H](Cc2c[nH]cn2)NC(=O)CNC(=O)CSC[C@@H](C(N)=O)NC(=O)[C@H](Cc2c[nH]c3ccccc23)NC1=O [CTX-1644] ({CH2CO}-GH[dF]RWC-NH2; thioether N-6) | 111
C[C@H]1NC(=O)CSC[C@@H](C(N)=O)NC(=O)[C@H](Cc2c[nH]c3ccccc23)N(C)C(=O)[C@H](CCCNC(=N)N)NC(=O)[C@@H](Cc2ccccc2)NC(=O)[C@H](Cc2c[nH]cn2)N(C)C1=O [CTX-1203] ({CH2CO}-[dA][NMeH][dF]R[NMeW]C-NH2; thioether N-6) | 109
CC(=O)N[C@H]1CSSC[C@@H](C(N)=O)NC(=O)[C@H](Cc2ccccc2)NC(=O)[C@H](CCCNC(=N)N)NC(=O)[C@@H](Cc2ccccc2)NC(=O)[C@H](Cc2c[nH]cn2)NC(=O)C(C)(C)NC1=O [CTX-1634, cyclo(Cys-Aib-His-D-Phe-Arg-Phe-Cys)] (Ac-C[Aib]H[dF]RFC-NH2; disulfide 1-7 (inferred)) | 107
CC(=O)N[C@H]1CSSC[C@@H](C(N)=O)NC(=O)[C@H](Cc2c[nH]c3ccccc23)NC(=O)[C@H](CCCNC(=N)N)NC(=O)[C@@H](Cc2ccccc2)NC(=O)[C@H](CCCNC(=N)N)NC(=O)[C@@H](C)NC1=O [CTX-1627, cyclo(Cys-D-Ala-Arg-D-Phe-Arg-Trp-Cys)] (Ac-C[dA]R[dF]RWC-NH2; disulfide 1-7 (inferred)) | 104
CC(=O)N[C@@H](CCCNC(=N)N)C(=O)N[C@H]1CSSC[C@@H](C(N)=O)NC(=O)[C@@H](Cc2c[nH]c3ccccc23)NC(=O)[C@H](CCCNC(=N)N)NC(=O)[C@@H](Cc2ccccc2)NC(=O)[C@H](CCCNC(N)=O)NC(=O)[C@@H](C)NC1=O [CTX-1286] (Ac-RC[dA][Cit][dF]R[dW]C-NH2; disulfide 2-8) | 91
CCCC[C@H](NC(=O)[C@H](CCCNC(=N)N)NC(C)=O)C(=O)N[C@H]1CSSC[C@@H](C(N)=O)NC(=O)[C@H](Cc2c[nH]c3ccccc23)NC(=O)[C@H](CCCNC(=N)N)NC(=O)[C@@H](Cc2ccccc2)NC(=O)[C@H](Cc2c[nH]cn2)NC1=O [CTX-1227, Arg-Nle-cyclo(Cys-His-D-Phe-Arg-Trp-Cys)] (Ac-R[Nle]CH[dF]RWC-NH2; disulfide 3-8 (inferred)) | 103
